Some compounds, each annotated with its measured pKi.
Sequence of the target: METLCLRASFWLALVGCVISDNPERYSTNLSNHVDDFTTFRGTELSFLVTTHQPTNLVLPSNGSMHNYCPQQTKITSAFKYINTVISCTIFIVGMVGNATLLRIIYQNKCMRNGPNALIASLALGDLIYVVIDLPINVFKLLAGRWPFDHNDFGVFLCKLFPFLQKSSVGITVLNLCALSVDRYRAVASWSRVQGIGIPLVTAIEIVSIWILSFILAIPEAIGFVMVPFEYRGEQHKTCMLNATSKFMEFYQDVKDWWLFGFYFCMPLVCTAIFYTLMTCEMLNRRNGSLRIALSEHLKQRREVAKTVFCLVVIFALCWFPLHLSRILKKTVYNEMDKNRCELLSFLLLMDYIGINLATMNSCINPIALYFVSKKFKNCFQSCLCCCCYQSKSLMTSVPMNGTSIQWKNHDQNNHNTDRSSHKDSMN
When answering, recall that pKi equals minus log10 of the concentration in mol/L, and write that number alone.

INSERT INTO measurements (chem_smiles, measure, value_observed) VALUES
  ('CCCCS(=O)(=O)NC(=O)[C@@H](NC(=O)[C@H](Cc1ccc(-c2ccno2)cc1)N(C)C(=O)c1cc(C)cc(C)c1)C(C)C', 'pKi', 5.17);

Moving on to another compound below.
Which value of pKi has been reported for `CCCCS(=O)(=O)NC(=O)[C@H](NC(=O)[C@@H](Cc1ccc(-c2ccno2)cc1)N(C)C(=O)c1cc(C)cc(C)c1)C(C)C` in the records? 6.07
